- protocol-summary: yeast display, Sf9 membrane polyspecificity reagent, FACS + sequencing; frameworks hold sequencing errors
reported-property: polyreactivity (PSR sort gate)

• QVQLVESGGGLVQAGGSLRLSCAASGLIFSFYAMGWYRKAPGKERELVATISNTDSTNYADSVKGRFTISRDNAKNTVYLQMNRLKPEDTAVYYCAADVWDGRYLYTGVYDYWGQGTQVTVSS = low polyreactivity
• QVQLVESGGGLVQAGGSLRLSCAASGFTFYKYVMGWYRQAPGKERELVAAITTSGGSTYYADSVKGRFTISRDNAKNTVYLQMNSLKPEDTAVYYCNARSLHTSEGDYWGQGTQVTVSS = low polyreactivity
• QVQLVESGGGLVLAGGSLRLSCAASGSTFFTNVMGWNRQAPGKERELVASITSGGSTNYADSVKGRFTITRDNAQNTVYLQMNSLKPEDTAVYYCAAVTRTITIYELDSWGQGTQVTVSS = low polyreactivity
• QVQLVESGGGLVQAGGSLRLICAASGFTFVRYTMGWYRQAPGKERELVAVIRRGGSTYYADSVKGRFTISRDNAKNTVYLQMNSLKPEDTAVYYCNALSALAVEDGYWGQGTQVTVSS = low polyreactivity
• QVQLVESGGGLVQAGGSLRLSCAASGSTFHKYTMGWYRQAPGKEREFVAAITRNGGTTSYADSVKGRFTISRDNAKNTVYLQMNSLKPEDTAVYYCAVKWRRQINYDYWGQGTQVTVSS = high polyreactivity
• QVQLVESLGGLVQAGASLRLSCAASARTFVIYSMGSYREAPGKERELVAAITWNGETTYYADSVKGRFTISRDNAKNTVYLQMNSLKPEDTAVYYCAAETRSEYHYWGQGTQVTVSS = high polyreactivity
• QVQLVESGGGLVQAGGSLRLSCAASGFTFAVYAMGWDSQAPGKERELVAAISRSGTRTYYADSVKGRFTSSRDNAKNTVSLQMNSLKPEDTAVYYCAADKYRHGYDYWGQGTQVTVSS = low polyreactivity
• QVQLVESGGGLVQAGGSLRLSCAASGRIFTTYAMGWYRQAPGKERELVARISSGGTTYYADSVKGRFTISRDNAKNTVYLQMNSLKPEDTAVYYCNVRAVTPTRSRPFRYDYWGQGTQVTVSS = high polyreactivity
• QVQLVESGGGLVQAGGSLRLSCAASGLIFYDNMGWYRQAPGKERELVAAISSSGGSTSYADSVKGRFTISRDNAKNTVYLQMNSLKPADTAVYYCAADSYPAYLGFVGFDYWGQGTQVTVSS = low polyreactivity
• QVQLVESGGGLVQAGGSLRLSCAASGGIFVTYTMGWYRQAPGKERELVAGINSRSGSTYADSVKGRFTISRDNAKNTVYLQMNSLKLEDTAVYYCAADRIDLGRASRYGYWGQGTQVTVSS = low polyreactivity
• QVQLVESGGGLVQAGGSLRLRCAASGSTFSTNAMGWYSQAPGKERELVASITRSGGSTYYADSVKGRFTISRDNAKNTFYLQMTSLKPEDTAVYYCNADGYYDYDYGFWGQGTQVTVSS = low polyreactivity
• QDQLVESGGGLVQAGGSLRLICDASGSILWHYAMGWYRQAPGTEREWVAAITQRGGSTYYADSEKGRFTISRDTAKYNVYLQMNSLKPEDTAVYYFNTYPTRTYPSYYYWRQGTQVTVSS = high polyreactivity
• QVQLVESGGGLVQAGRSLRLSCAASGSTLTRNAMGWYRQAPGKERELVAAITQRGGSTYYADSVKGRFTISRDNAKNTVYLQMNSLKPEDTAVYYCAAAYRGYARHDYWGQGTQVNVSS = high polyreactivity
• QVQLVESAGGLVQAGGSLRLSCAASGRIFQFYAMGWYRQARGKERELVAVITRRGGSTHYADSVKGRFTISRDTAKNTVYLQMNILKPEDTAVYYCAKVPFHFVSPYDYWGQGTQVTVSS = high polyreactivity
• QVQLVESGGGLVQAGGSLRLSCASSGSIFVLNAMGWYRQAPVKESELVAGITYSGGSTYYADSVKGRFTISRDNAKNTVYLQMNSLKPEDTAVYYWSAPVRRYPYPGRFYYWGQGTQVTVSS = low polyreactivity
• QVQLVESGGGLVQAGGSLRLSCAASGSIFDINAMGWYRQAPGKERELVAVITDSGSTYYADSVKGRFTISRDNAKNTVYLQMNSLKPEDTAVYYCAAESSLLFFLMDYWGQATQVTVSS = low polyreactivity
• QVQLVESGGGLVQAGGSLRLSCAASGRTFKRNAMGWYRQAPGKERELVASISWRGGSTYYADSVKGRFTISRDNAKNTVFLQMKSLKPEDTAVYYCAAQYPVWRRLYRTWLVAEVDYWGQGTQVTVSS = low polyreactivity
• QVQLVESGGGLVQAGGSLRLSCAATGSTFWQYVMGWYRQAPGKERELVAAISYSGGSTYYADSVKGRFTISRDNAKNTVYLQMNSLKPEDTAVYYCATRGYRWSVFDYWGQGTQVTVSS = high polyreactivity
• QVQLVESGGGLVQAGGSLRLSCAASGGIFFINAMGWYRQAPGKERELIAAISISDGSTYYADSVKGRFTISRDNAKNTVYLQMNSLKTEDTAVYYCAADYDVLRLGYARIPLYDYWGQGTQVTVSS = low polyreactivity
• QVQLVESGGGLVQAGGSLRLSCAASGITFYYYAMGWYRQAPGKERELVASISSVGSTYYADSVKGRFTISRDNAKNTVYLQMNSLKPEDTAVYYCAAVDYVRYYPDEFDYWGQGTQVTVSS = low polyreactivity
• QVQLVESGGGLVQAGGSLRLSCAASGSIFGVNYMGWYRQAPGKERELVAGLSSSGGSTYYADSVKGRFTISRDNAKNTVYLQMNSLKPEDTAVYDCAATQSRYYSDDPYYYWGQGTQVTVSS = low polyreactivity
